- TARGET OF ASSAY: 5-hydroxytryptamine receptor 6 (Mus musculus, UniProt Q9R1C8, W283A)
- Sequence (Q9R1C8 whole entry W283A): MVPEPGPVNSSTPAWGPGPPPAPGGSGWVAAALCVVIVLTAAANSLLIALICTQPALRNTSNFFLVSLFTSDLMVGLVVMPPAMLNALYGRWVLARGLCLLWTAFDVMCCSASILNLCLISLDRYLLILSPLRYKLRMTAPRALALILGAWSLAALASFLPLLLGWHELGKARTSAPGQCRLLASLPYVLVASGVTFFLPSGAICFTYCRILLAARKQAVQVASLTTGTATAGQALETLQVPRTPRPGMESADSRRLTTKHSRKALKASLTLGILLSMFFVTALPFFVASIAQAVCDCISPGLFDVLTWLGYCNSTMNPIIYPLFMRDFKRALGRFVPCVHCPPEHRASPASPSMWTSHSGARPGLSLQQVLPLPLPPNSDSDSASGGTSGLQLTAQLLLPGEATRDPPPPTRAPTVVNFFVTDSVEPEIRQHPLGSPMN
- TEST DETAILS: Antagonist activity at mouse 5HT6 receptor W6.48A mutant expressed in COS7 cells assessed as inhibition of serotonin-induced cAMP accumulation by HTRF assay
PROPERTY NAME: Ki (nM)
Numbers only, in nM.

Prompt line: Using known records, supply Ki for "COc1ccc(NS(=O)(=O)c2ccc(I)cc2)cc1N1CCN(C)CC1"
Response line: 0.32

* * *

- TARGET OF ASSAY: 5-hydroxytryptamine receptor 6 (Mus musculus, UniProt Q9R1C8, F287A)
- Sequence (Q9R1C8 whole entry F287A): as the sequence (Q9R1C8 whole entry W283A) above, with A283W, F287A counted along it
- TEST DETAILS: Antagonist activity at mouse 5HT6 receptor F6.52A mutant expressed in COS7 cells assessed as inhibition of serotonin-induced cAMP accumulation by HTRF assay
PROPERTY NAME: pKi
One number for each entry, as −log10 of the molar value.

Prompt line: Using known records, supply pKi for "COc1ccc(NS(=O)(=O)c2ccc(I)cc2)cc1N1CCN(C)CC1"
Response line: 6.94

* * *

- TARGET OF ASSAY: 5-hydroxytryptamine receptor 6 (Homo sapiens, UniProt P50406)
- Sequence (P50406 whole entry): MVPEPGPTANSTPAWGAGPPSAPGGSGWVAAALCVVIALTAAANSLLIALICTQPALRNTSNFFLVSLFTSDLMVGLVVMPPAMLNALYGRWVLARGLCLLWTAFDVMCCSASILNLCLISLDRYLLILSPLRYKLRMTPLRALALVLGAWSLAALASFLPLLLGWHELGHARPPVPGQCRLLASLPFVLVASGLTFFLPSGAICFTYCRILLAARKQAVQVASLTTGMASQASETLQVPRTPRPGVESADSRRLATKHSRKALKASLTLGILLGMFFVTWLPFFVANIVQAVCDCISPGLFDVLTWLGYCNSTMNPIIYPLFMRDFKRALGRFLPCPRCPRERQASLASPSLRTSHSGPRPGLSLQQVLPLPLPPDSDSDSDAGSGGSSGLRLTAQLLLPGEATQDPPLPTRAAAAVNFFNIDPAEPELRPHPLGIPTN
- TEST DETAILS: Displacement of [3H]LSD from human 5HT6 receptor expressed in HEK293 cells by liquid scintillation counting
- Format: cell-based
pKi: −log10 of the molar value.
PROPERTY NAME: pKi

Known results for compounds:
• CN1CCN(c2ccc3[nH]c(C(=O)c4ccc5ccccc5c4)nc3c2)CC1 = < 6.00
• CN1CCN(c2cccc3[nH]c(C(=O)c4ccccc4)nc23)CC1 = < 6.00
• CN1CCN(c2cccc3[nH]c(Cc4ccccc4)nc23)CC1 = 7.18
• CN1CCN(c2ccc3[nH]c(C(=O)c4cccc5ccccc45)nc3c2)CC1 = < 6.00
• CN1CCN(c2ccc3[nH]c(Cc4ccccc4)nc3c2)CC1 = < 6.00
• c1ccc2cc(Cc3nc4ccc(N5CCNCC5)cc4[nH]3)ccc2c1 = < 6.00
• O=C(c1nc2c(N3CCNCC3)cccc2[nH]1)c1cccc2ccccc12 = 7.89
• CN1CCN(c2ccc3[nH]c(C(=O)c4ccccc4)nc3c2)CC1 = < 6.00
• CN1CCN(c2ccc3[nH]c(Cc4cccc5ccccc45)nc3c2)CC1 = < 6.00
• c1ccc2c(Cc3nc4c(N5CCNCC5)cccc4[nH]3)cccc2c1 = 7.80

Quick batch: pKi for everything below.
1. CN1CCN(c2ccc3[nH]c(Cc4ccc5ccccc5c4)nc3c2)CC1
2. O=C(c1ccccc1)c1nc2c(N3CCNCC3)cccc2[nH]1

Response line:
1. < 6.00
2. < 6.00

Quick batch: pKi for everything below.
1. c1ccc(Cc2nc3c(N4CCNCC4)cccc3[nH]2)cc1
2. CN1CCN(c2cccc3[nH]c(C(=O)c4ccc5ccccc5c4)nc23)CC1
3. O=C(c1ccc2ccccc2c1)c1nc2cc(N3CCNCC3)ccc2[nH]1
4. c1ccc(Cc2nc3cc(N4CCNCC4)ccc3[nH]2)cc1

Response line:
1: 7.24; 2: < 6.00; 3: < 6.00; 4: < 6.00

Quick batch: pKi for everything below.
1. c1ccc2c(Cc3nc4ccc(N5CCNCC5)cc4[nH]3)cccc2c1
2. CN1CCN(c2cccc3[nH]cnc23)CC1
3. CN1CCN(c2cccc3[nH]c(Cc4cccc5ccccc45)nc23)CC1

Response line:
1: < 6.00; 2: < 6.00; 3: 7.44

* * *

- TARGET OF ASSAY: 5-hydroxytryptamine receptor 6 (Mus musculus, UniProt Q9R1C8, C110A)
- Sequence (Q9R1C8 whole entry C110A): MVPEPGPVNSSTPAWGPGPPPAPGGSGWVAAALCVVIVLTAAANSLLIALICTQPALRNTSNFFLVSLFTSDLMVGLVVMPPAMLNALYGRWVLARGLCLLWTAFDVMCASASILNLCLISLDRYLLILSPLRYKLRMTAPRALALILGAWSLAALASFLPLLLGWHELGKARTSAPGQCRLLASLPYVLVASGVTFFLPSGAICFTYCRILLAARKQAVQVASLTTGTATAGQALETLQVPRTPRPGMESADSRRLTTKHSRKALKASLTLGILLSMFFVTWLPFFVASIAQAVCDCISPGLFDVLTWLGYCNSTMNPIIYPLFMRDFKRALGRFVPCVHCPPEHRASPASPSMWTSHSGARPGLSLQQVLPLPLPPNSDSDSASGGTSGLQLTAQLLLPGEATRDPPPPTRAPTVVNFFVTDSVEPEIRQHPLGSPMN
- TEST DETAILS: Antagonist activity at mouse 5HT6 receptor C3.36A mutant expressed in COS7 cells assessed as inhibition of serotonin-induced cAMP accumulation by HTRF assay
PROPERTY NAME: Ki (µM)
Answers are plain numbers, in µM.

Prompt line: Using known records, supply Ki for "COc1ccc(NS(=O)(=O)c2ccc(I)cc2)cc1N1CCN(C)CC1"
Response line: 0.054

* * *

- TARGET OF ASSAY: 5-hydroxytryptamine receptor 6 (Homo sapiens, UniProt P50406)
- TEST DETAILS: Antagonist activity at human 5HT6 receptor expressed in COS7 cells assessed as inhibition of serotonin-induced cAMP accumulation by HTRF assay
- Assay type: functional, cell-based, COS-7
PROPERTY NAME: Ki (nM)
Give bare numbers, in nM.

Known results for compounds:
* CN1CCN(c2cccc3[nH]c(Cc4cccc5ccccc45)nc23)CC1 | 27
* O=C(c1nc2c(N3CCNCC3)cccc2[nH]1)c1cccc2ccccc12 | 15
* c1ccc2c(Cc3nc4c(N5CCNCC5)cccc4[nH]3)cccc2c1 | 16
* CN1CCN(c2cccc3[nH]c(Cc4ccccc4)nc23)CC1 | 16

Kindly review the next compound as well.
Prompt line: Using known records, supply Ki for "c1ccc(Cc2nc3c(N4CCNCC4)cccc3[nH]2)cc1"
Response line: 31

* * *

- TARGET OF ASSAY: 5-hydroxytryptamine receptor 6 (Mus musculus)
- TEST DETAILS: Antagonist activity at mouse wild type 5HT6 receptor expressed in COS7 cells assessed as inhibition of serotonin-induced cAMP accumulation by HTRF assay
PROPERTY NAME: Ki (nM)
Answers are plain numbers, in nM.

Prompt line: Using known records, supply Ki for "COc1ccc(NS(=O)(=O)c2ccc(I)cc2)cc1N1CCN(C)CC1"
Response line: 0.75
